meta.source: patent US10676467B2

- Target Of Assay: S1P4 (Homo sapiens (Human), UniProt O95977)
- Sequence (O95977 whole entry): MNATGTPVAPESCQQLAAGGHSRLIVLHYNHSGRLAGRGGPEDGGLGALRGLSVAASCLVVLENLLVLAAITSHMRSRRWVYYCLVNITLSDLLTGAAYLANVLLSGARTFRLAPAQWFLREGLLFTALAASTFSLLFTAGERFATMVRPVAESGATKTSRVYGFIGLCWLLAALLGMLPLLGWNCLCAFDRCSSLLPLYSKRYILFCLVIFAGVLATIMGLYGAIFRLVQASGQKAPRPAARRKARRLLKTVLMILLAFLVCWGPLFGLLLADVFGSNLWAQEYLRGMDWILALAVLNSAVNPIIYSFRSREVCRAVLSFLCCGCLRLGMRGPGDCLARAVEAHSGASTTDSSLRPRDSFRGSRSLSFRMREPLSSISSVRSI
- Test: [32P]S1P competitive binding assay on cell membranes
- Stated Conditions: competition against [32P]S1P, mean ± SD
Measurement Label: IC50

Compound: OCC(O)COCc1ccc(-c2noc(-c3ccc(OCCF)c(C(F)(F)F)c3)n2)cc1 (centres unmarked)
IC50: > 1000 nM

Would you kindly look at the next entry?
So for CCCCCCCCCCCCC/C=C/[C@@H](O)[C@@H](N)COP(=O)(O)O [Compound S1P, Sphingosine-1-phosphate, reference compound] , the logged IC50 turned out to be 151 nM

====

- Target Of Assay: recombinant human S1P1 (Homo sapiens (Human))
- Sequence (P21453 whole entry): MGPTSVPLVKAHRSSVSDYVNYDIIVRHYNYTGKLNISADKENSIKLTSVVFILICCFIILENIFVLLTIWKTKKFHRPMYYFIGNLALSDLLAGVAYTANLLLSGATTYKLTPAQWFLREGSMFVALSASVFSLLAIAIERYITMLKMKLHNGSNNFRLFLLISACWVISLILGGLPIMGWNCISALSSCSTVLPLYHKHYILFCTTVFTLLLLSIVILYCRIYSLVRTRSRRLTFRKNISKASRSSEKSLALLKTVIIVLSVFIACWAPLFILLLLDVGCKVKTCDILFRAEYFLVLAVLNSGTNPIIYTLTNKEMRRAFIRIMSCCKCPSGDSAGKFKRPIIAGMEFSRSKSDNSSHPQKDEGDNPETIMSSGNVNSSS
- Test: [32P]S1P competitive binding assay on cell membranes
- Stated Conditions: competition against [32P]S1P, membranes with recombinant human S1P1, mean ± SD; read-out: S1P1 IC50 ± SD
Measurement Label: pIC50
# reply with the number alone; pIC50 is -log10 of concentration in mol/L

Compound: OCCNCc1ccc(-c2noc(-c3ccc(OCCF)c(C(F)(F)F)c3)n2)cc1
pIC50: 7.22
//
Compound: CCOc1cc(-c2nc(-c3ccncc3)no2)ccc1OCCF
pIC50: 6.74
//
Compound: CN(CCC(=O)O)Cc1ccc(-c2noc(-c3ccc(-c4ccccc4OCCF)c(C(F)(F)F)c3)n2)cc1F
pIC50: 7.12
//
Compound: COc1cccc(-c2ccc(-c3nc4cc(N5CCC(C(=O)O)CC5)ccc4o3)cc2C(F)(F)F)c1
pIC50: 7.02

So for OCCNCCOCc1ccc(-c2noc(-c3ccc(OCCF)c(C(F)(F)F)c3)n2)cc1 [Compound 12f] , the logged pIC50 turned out to be 7.12

So for CN(CCO)CCOCc1ccc(-c2noc(-c3ccc(OCCF)c(C(F)(F)F)c3)n2)cc1 [Compound 12g] , the logged pIC50 turned out to be 6.89

So for CCCCCCCCCCCCC/C=C/[C@@H](O)[C@@H](N)COP(=O)(O)O [Compound S1P, Sphingosine-1-phosphate, reference compound] , the logged pIC50 turned out to be 8.85

So for OCCOCCOCCOCc1ccc(-c2noc(-c3ccc(OCCF)c(C(F)(F)F)c3)n2)cc1 [Compound 12c] , the logged pIC50 turned out to be 6.97
